Test system: MDA-MB-435 melanoma
Experiment: NCI-60 one-dose screen, 48 h (100 = growth as untreated, 0 = no growth, -100 = all killed)
Conditions: 10 µM unless noted
Experimental: Growth inhibition of the MDA-MB-435 human Melanoma tumor cell line is measured as a screen for anti-cancer activity. Cells are grown in 96 well plates and exposed to the test compound for 48 hours. Compounds are tested at a single concentration, which is 10^-5 M for most compounds. The reported endpoint is percent growth (GI% or GIPRCNT), where numbers from 0 - 100% represent growth inhibition, and numbers from -100% - 0 represent cell death. […]
The panel holds about 83,000 compounds, 20% with a hit somewhere; the sample as a whole holds those more often.
Quantity Kind: growth (%)
Give just the number in %; leave the unit off.

Here's what some known entries look like.
{"Molecule": "O=C(c1c[nH]c2ccccc12)C(Sc1nc2ccccc2c(=O)[nH]1)c1ccccc1 (stereo unspecified)", "Unit String": "%", "growth": 115}
{"Molecule": "CC(=O)Nc1nc(C(=O)N2N=C(C)/C(=C/c3cccs3)C2=O)cs1", "Unit String": "%", "growth": 103}
{"Molecule": "O=C1CCCCC=C1C[N+](=O)[O-]", "Unit String": "%", "growth": 92.9}
{"Molecule": "Nc1nn2cc(-c3ccc(Cl)s3)nc2c2ccccc12", "Unit String": "%", "growth": 93.4}
{"Molecule": "CCNC(=O)CCCCC(=O)c1c(C)[nH]c(/C=C2\\N=C(c3ccc[nH]3)C=C2OC)c1C", "Unit String": "%", "growth": -18.4}

Input line: Given the entry Cc1oc2ncnc(Nc3ccccc3)c2c1C(=O)NCCO , what growth was observed with MDA-MB-435 melanoma?
Output line: 102

Input line: Given the entry O=C1NCC(c2cc3ccccc3[nH]c2=O)Nc2ccccc21 (stereo unspecified) , what growth was observed with MDA-MB-435 melanoma?
Output line: 107

Input line: Given the entry NC(=O)c1c(NC(=O)c2ccc(OCC3CCCO3)cc2)sc2c1CCCC2 (stereo unspecified) , what growth was observed with MDA-MB-435 melanoma?
Output line: 95.8

Input line: Given the entry Cc1nc(Nc2cccnc2)sc1C(=O)/C=C/c1ccc(F)cc1 , what growth was observed with MDA-MB-435 melanoma?
Output line: 2.86

Input line: Given the entry CC(C)[C@H](CO)Nc1nc(Nc2ccc(C(=O)NCCNS(=O)(=O)c3cccc4c(N(C)C)cccc34)c(Cl)c2)c2ncn(C(C)C)c2n1 , what growth was observed with MDA-MB-435 melanoma?
Output line: 0.754

Input line: Given the entry NC(CC(N)C(=O)O)C(=O)O (stereo unspecified) , what growth was observed with MDA-MB-435 melanoma?
Output line: 103

// data source = PubChem BioAssay (NCI)
